- Test system: U-937/GTB
- Assay Text: Cytotoxicity against human U937/GTB cells after 72 hrs by trypan blue exclusion method
- Assay type: functional, cell-based
- Protocol Conditions: Homo sapiens, U-937/GTB, 72 h
Recorded Metric: pIC50
Please keep in mind that pIC50 is minus log10 of the molar concentration; only the number is needed.

I would be grateful if you could share the reported pIC50 for "COc1cccc2c1C(=O)c1c(O)c3c(c(O)c1C2=O)C[C@@](O)(C(=O)CO)C[C@@H]3O[C@H]1C[C@H](N)[C@H](O)[C@H](C)O1" .
7.00
